biological target: rat μ opioid receptors (rMOR) (Rattus norvegicus); construct: expressed in transfected cells; host or cells: HN9.10 neuroblastoma cell line, pCDNA3, neomycin-selected clones; experiment: biochemical; type: biochemical; conditions: read-out: GTP binding rMOR Emax
Sequence (P33535 whole entry): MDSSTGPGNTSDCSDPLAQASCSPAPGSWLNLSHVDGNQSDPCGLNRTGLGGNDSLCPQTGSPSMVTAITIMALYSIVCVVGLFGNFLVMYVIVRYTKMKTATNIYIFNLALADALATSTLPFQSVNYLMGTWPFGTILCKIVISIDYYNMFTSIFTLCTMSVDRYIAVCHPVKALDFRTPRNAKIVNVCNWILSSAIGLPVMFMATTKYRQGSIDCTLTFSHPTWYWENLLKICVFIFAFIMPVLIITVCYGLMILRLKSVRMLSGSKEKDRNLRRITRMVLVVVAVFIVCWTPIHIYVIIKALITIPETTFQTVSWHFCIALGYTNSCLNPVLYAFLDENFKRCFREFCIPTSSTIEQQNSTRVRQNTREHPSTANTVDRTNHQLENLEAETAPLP
assay endpoint: Emax (%)
Form entry: value (%) — number only.

Q. Would you kindly share the measured Emax for CC(C)C[C@H](NC(=O)[C@@H]1CCCN1C(=O)[C@H](CC(C)C)NC(=O)[C@H](Cc1ccccc1)NC(=O)CNC(=O)[C@@H](C)NC(=O)[C@@H](N)Cc1ccc(O)cc1)C(=O)N[C@@H](Cc1c[nH]c2ccccc12)C(=O)OCc1cc(C(F)(F)F)cc(C(F)(F)F)c1 [TY004] ?
A. 44.5

----------
Below, each entry is listed with its recorded IC50.
tested on: μ opioid receptors (GPI); assay: Guinea pig isolated ileum (GPI) assay, opioid agonist; conditions: Table 39; read-out: GPI/LMMP opioid(mu) agonist (IC50; nM);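 note: inhibition of electrically evoked contractions (0.1 Hz, 0.4 msec, supramaximal voltage) in organ baths at 37 °C, contraction height 3 min after each cumulative dose versus the 1 min before dosing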
Express it in nM; write the number only.

Q. Any idea what its IC50 is? The molecule is `CSCC[C@H](NC(=O)[C@H](Cc1ccccc1)NC(=O)CNC(=O)[C@@H](C)NC(=O)[C@@H](N)Cc1c(C)cc(O)cc1C)C(=O)N1CCC[C@H]1C(=O)N[C@@H](CC(C)C)C(=O)N[C@@H](Cc1c[nH]c2ccccc12)C(=O)NCc1ccccc1`
A. 11.4

Q. Next record, please: `CCCC[C@H](NC(=O)[C@H](Cc1ccccc1)NC(=O)CNC(=O)[C@@H](C)NC(=O)[C@@H](N)Cc1ccc(O)cc1)C(=O)N1CCC[C@H]1C(=O)N[C@@H](CC(C)C)C(=O)N[C@@H](Cc1c[nH]c2ccccc12)C(=O)NCc1cc(C(F)(F)F)cc(C(F)(F)F)c1`
A. 463

----------
molecular target: human δ opioid receptors (hDOR) (Homo sapiens); construct: expressed in transfected cells; host or cells: HN9.10 neuroblastoma cell line, pCDNA3, neomycin-selected clones; test: [35S]GTP-γ-S binding assay, hDOR; assay type: biochemical; settings: net total bound/basal binding × 100; read-out: Emax, hDOR, [35S]GTP-γ-S binding
Sequence (P41143 whole entry): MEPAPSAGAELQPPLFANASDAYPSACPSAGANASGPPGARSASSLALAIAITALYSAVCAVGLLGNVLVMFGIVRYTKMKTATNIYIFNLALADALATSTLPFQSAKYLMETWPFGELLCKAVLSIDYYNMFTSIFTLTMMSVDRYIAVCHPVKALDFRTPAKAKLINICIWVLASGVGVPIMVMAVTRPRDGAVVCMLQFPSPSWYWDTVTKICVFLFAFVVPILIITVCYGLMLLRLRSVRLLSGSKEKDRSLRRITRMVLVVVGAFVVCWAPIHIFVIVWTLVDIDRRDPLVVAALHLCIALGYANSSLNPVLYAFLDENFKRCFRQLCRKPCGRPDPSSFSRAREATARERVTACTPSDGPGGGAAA
Peptide text beside a SMILES is read from it.
assay endpoint: Emax (%)
Reply with just the number (in %).

# molecule, Emax, %
records = [
    ("CC(C)C[C@H](NC(=O)[C@@H]1CCCN1C(=O)CNC(=O)[C@H](Cc1ccccc1)NC(=O)CNC(=O)[C@@H](C)NC(=O)[C@@H](N)Cc1ccc(O)cc1)C(=O)N[C@@H](Cc1c[nH]c2ccccc12)C(=O)OCc1cc(C(F)(F)F)cc(C(F)(F)F)c1 [TY006] (HELM PEPTIDE1{Y.[dA].G.F.G.P.L.W.[FC(F)(F)c1cc(CO[*:1])cc(C(F)(F)F)c1]}$$$$V2.0)", 35),
    ("CC(C)C[C@H](NC(=O)[C@@H]1CCCN1C(=O)[C@H](CC(C)C)NC(=O)[C@H](Cc1ccccc1)NC(=O)CNC(=O)[C@@H](C)NC(=O)[C@@H](N)Cc1ccc(O)cc1)C(=O)N[C@@H](Cc1c[nH]c2ccccc12)C(=O)OCc1cc(C(F)(F)F)cc(C(F)(F)F)c1 [TY004]", 44),
]

Let us move to another entry and its Emax.
Q. Need Emax, item CCCC[C@@H]1NC(=O)[C@H](Cc2ccccc2)NC(=O)CNC(=O)[C@H](NC(=O)[C@@H](N)Cc2ccc(O)cc2)CSSC[C@H](C(=O)N[C@@H](Cc2c[nH]c3ccccc23)C(=O)NCc2cc(C(F)(F)F)cc(C(F)(F)F)c2)NC(=O)[C@@H]2CCCN2C1=O [TY038, [D-Cys^2, D-Cys^7]TY027] (HELM PEPTIDE1{Y.[dC].G.F.[Nle].P.[dC].W.[FC(F)(F)c1cc(CN[*:1])cc(C(F)(F)F)c1]}$PEPTIDE1,PEPTIDE1,2:R3-7:R3$$$V2.0; N-terminus assumed)
A. 87
